Assay: Induction of nitric oxide release in potassium phosphate buffer at pH 7.4 at 0.1 mM after 45 mins by Griess assay
Format: physicochemical
Conditions: pH 7.4, 0.75 h, 100 µM
Measured metric: Activity (µM)
Write the value in µM as a bare number.

Activity lookup needed for CCCCC(OC(=O)CN1CCN(CCCCCCOc2ccc(-c3cc(=S)ss3)cc2)CC1)c1ccccc1C(=O)Oc1ccc(/C=C/C(=O)OCCO[N+](=O)[O-])cc1OC (racemic) , thanks.
4.13

Field entry: CCCCC(OC(=O)CN1CCN(CCCCOc2ccc(-c3cc(=S)ss3)cc2)CC1)c1ccccc1C(=O)Oc1ccc(/C=C/C(=O)OCCCCO[N+](=O)[O-])cc1OC (racemic)
4.58

Field entry: CCCCC(OC(=O)CN1CCN(CCCCCOc2ccc(-c3cc(=S)ss3)cc2)CC1)c1ccccc1C(=O)Oc1ccc(/C=C/C(=O)OCCO[N+](=O)[O-])cc1OC (racemic)
6.89

---

Test: Induction of nitric oxide release in potassium phosphate buffer at pH 7.4 at 0.1 mM after 240 mins by Griess assay
Format: physicochemical
Details: pH 7.4, 4 h, 100 µM
Measured metric: Activity
Write the numeric value and follow it with the unit.

# annotated cases, reported Activity shown
{"columns": ["Compound", "Activity"],
 "data": [
  ["CCCCC(OC(=O)CN1CCN(CCCOc2ccc(-c3cc(=S)ss3)cc2)CC1)c1ccccc1C(=O)Oc1ccc(/C=C/C(=O)OCCCCO[N+](=O)[O-])cc1OC (racemic)", "3.32 µM"],
  ["CCCCC(OC(=O)CN1CCN(CCCCOc2ccc(-c3cc(=S)ss3)cc2)CC1)c1ccccc1C(=O)Oc1ccc(/C=C/C(=O)OCCCCCCO[N+](=O)[O-])cc1OC (racemic)", "5.33 µM"]
]}

Proceed to the following item.
Activity lookup needed for CCCCC(OC(=O)CN1CCN(CCOc2ccc(-c3cc(=S)ss3)cc2)CC1)c1ccccc1C(=O)Oc1ccc(/C=C/C(=O)OCCCCCCO[N+](=O)[O-])cc1OC (racemic) , thanks.
9.44 µM

---

Assay: Antiplatelet activity in rabbit platelet-rich plasma assessed as inhibition of ADP-induced platelet aggregation at 0.1 mM preincubated for 5 mins followed by addition of ADP measured within 5 mins by Borns turbidimetric method
Format: functional
Settings: Oryctolagus cuniculus
Collected inhibition at 100 µM values appear next to each entry.
Write the numeric value and follow it with the unit.

{"columns": ["Molecule", "inhibition at 100 µM"],
 "data": [
  ["CCCCC(OC(=O)CN1CCN(CCCCOc2ccc(-c3cc(=S)ss3)cc2)CC1)c1ccccc1C(=O)Oc1ccc(/C=C/C(=O)OCCO[N+](=O)[O-])cc1OC (racemic)", "19.7%"]
]}

inhibition at 100 µM lookup needed for S=c1cc(-c2ccc(OCCCCCN3CCNCC3)cc2)ss1 , thanks.
16.8%

Field entry: CCCCC(OC(=O)CN1CCN(CCCCCOc2ccccc2)CC1)c1ccccc1C(=O)Oc1ccc(/C=C/C(=O)OCCO[N+](=O)[O-])cc1OC (racemic)
19.8%

Field entry: CCCCC(OC(=O)CN1CCN(CCCOc2ccc(-c3cc(=S)ss3)cc2)CC1)c1ccccc1C(=O)Oc1ccc(/C=C/C(=O)OCCCCCCO[N+](=O)[O-])cc1OC (racemic)
19.7%

Field entry: CCCCC(OC(=O)CN1CCN(CCCCCOc2ccc(-c3cc(=S)ss3)cc2)CC1)c1ccccc1C(=O)Oc1ccc(/C=C/C(=O)OCCCCCCO[N+](=O)[O-])cc1OC (racemic)
19.7%

Field entry: CCCCC(OC(=O)CN1CCN(CCCCOc2ccc(-c3cc(=S)ss3)cc2)CC1)c1ccccc1C(=O)Oc1ccc(/C=C/C(=O)OCCCCCCO[N+](=O)[O-])cc1OC (racemic)
19.7%

Field entry: CCCCC(OC(=O)CN1CCN(CCOc2ccc(-c3cc(=S)ss3)cc2)CC1)c1ccccc1C(=O)Oc1ccc(/C=C/C(=O)OCCCCCCO[N+](=O)[O-])cc1OC (racemic)
19.7%

Field entry: CCCCC1OC(=O)c2ccccc21 (stereo not drawn) [RAC-3-N-BUTYLPHTHALIDE]
12.9%
